Hello, the source for this data is paper PMC4335062, in case you need it.

Target: NFE2L2 (Homo sapiens)
Construct: made in house
Sequence (Q16236 497-560 limits assumed): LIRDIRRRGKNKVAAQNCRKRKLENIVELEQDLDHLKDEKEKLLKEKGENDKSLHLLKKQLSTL
Assay: Direct-binding FRET assay
Conditions: Kd, 4°C; N-terminal rhodamine design; mean or single
Where no end group is shown, it is not given here.
measurement type: Kd

# lookup: Kd of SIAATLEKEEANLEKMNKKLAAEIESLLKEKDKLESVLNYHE [JUN-d1]
> 1000 nM

* * *

biological target: BACH2 (Homo sapiens); assay: Direct-binding FRET assay; parameters: made in house; details: 4°C; N-terminal rhodamine design; mean or single; read-out: Kd
Sequence (Q9BYV9 646-709 limits assumed): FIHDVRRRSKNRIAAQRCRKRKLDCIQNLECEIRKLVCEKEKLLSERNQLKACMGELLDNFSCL
Where no end group is shown, it is not given here.
Listed next: entries and their corresponding Kd.

State its Kd on BACH2 (Homo sapiens): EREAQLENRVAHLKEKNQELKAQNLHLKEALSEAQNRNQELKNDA [XBP1-d1]
> 1000 nM

And what about the sequence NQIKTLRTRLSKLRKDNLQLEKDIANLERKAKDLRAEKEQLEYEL [ATF4-d1] ?
> 1000 nM

Follow-up entry: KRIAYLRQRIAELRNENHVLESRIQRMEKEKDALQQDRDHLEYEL [ATF5-d1]
> 1000 nM
